Reference for the values: patent US20220370445A1

test: Bioavailability of compound (I) given by oropharyngeal aspiration to rats vs i.v.; format: in vivo, Male Sprague Dawley rats; conditions: male, Sprague Dawley, rat, plasma, other: oropharyngeal aspiration, oropharyngeal 0.02 mg/kg vs 0.01 mg/kg i.v., read-out: bioavailability of oropharyngeal administration
observation_type: bioavailability (%)
The figure you give is taken to be in %; do not add the unit.

bioavailability for "CC(=O)Nc1ccc(C2=NNC(=O)C[C@H]2C)cc1" ?
97.1

====

experiment: Bioavailability of compound (I) by ocular, intranasal or oromucosal administration vs i.v. in dogs; format: in vivo; conditions: dog, plasma, other: ocular (eye drops), 4 ug/kg; eye drops, ocular 4 μg/kg vs 4 μg/kg i.v., Beagle dogs, n=6
observation_type: bioavailability
Answer format reminder: number followed by unit.

What measured bioavailability goes with "CC(=O)Nc1ccc(C2=NNC(=O)C[C@H]2C)cc1" ?
67%

====

experiment: Bioavailability of compound (I) by ocular, intranasal or oromucosal administration vs i.v. in dogs; assay type: in vivo; conditions: dog, plasma, other: intranasal (drops), 4 ug/kg; intranasal drops 4 μg/kg vs 4 μg/kg i.v., Beagle dogs, n=6
observation_type: bioavailability
Record the result as number plus unit.

Tell me the measured bioavailability of "CC(=O)Nc1ccc(C2=NNC(=O)C[C@H]2C)cc1" , please.
82%
